tested on: MALME-3M melanoma; experiment: NCI-60 one-dose screen, 48 h (100 = growth as untreated, 0 = no growth, -100 = all killed); settings: 10 µM unless noted
The panel holds about 83,000 compounds, 20% with a hit somewhere; the sample as a whole holds those more often.
metric_name: growth (%)
Answers are plain numbers, in %.

Worked set:
Cn1cc(-c2cc3nc(-c4cn(C)c5ncccc45)cc(N)n3n2)c2cc(F)ccc21 62
COc1cc2cc(C(=O)N3C[C@@H](CCl)c4c3cc(OC(=O)N(CCC(=O)N3CCN(C)CC3)C3CCCCC3)c3ccccc43)[nH]c2c(OC)c1OC -97.6
O=C1Nc2cc(-c3ccc(NS(=O)(=O)c4ccc(C(F)(F)F)cc4)cc3)ccc2/C1=C/c1ccc[nH]1 63.3

Now for another entry.
stdin: // query growth value for entry "COc1ccc(NC(=O)CSc2nnc(-c3ccc(-c4nc5ccccc5[nH]4)cc3)o2)cc1"
stdout: 10.2

====

tested on: ACHN renal; experiment: NCI-60 one-dose screen, 48 h (100 = growth as untreated, 0 = no growth, -100 = all killed); details: 10 µM unless noted
About 83,000 compounds went through this panel and 20% of them were active in at least one assay; those are over-represented in the sample as a whole.
Classification field: Criterion met = growth at or over 70%; Criterion not met = growth under 70%.

Solved cases below.
compound	test_system	assigned_class
Cc1cccc(C)c1Nc1nnc(-c2c[nH]c3ccccc23)o1	ACHN renal	Criterion met
Cc1cc(C(NC(=O)C2CC3(CC(Nc4cccc5c4C(=O)N(C4CCC(=O)NC4=O)C5=O)C3)C2)c2ccc3c(c2)OC(F)(F)O3)c(O)c2ncccc12 (stereo not given)	ACHN renal	Criterion not met

stdin: // inclusive: growth at least 70%? input: CC1=C(C(=O)Nc2ccccc2)C(c2cccc(Cl)c2Cl)n2c(nc3ccccc32)N1 (stereo not given)
stdout: Criterion not met

stdin: What do you have for "O=C(N/N=C/c1ccc(Br)o1)c1[nH]c2ccc(Br)cc2c1-c1ccccc1" ?
stdout: Criterion not met

====

tested on: HOP-62 NSCLC; assay: NCI-60 one-dose screen, 48 h (100 = growth as untreated, 0 = no growth, -100 = all killed); conditions: 10 µM unless noted
This is part of a sample that, as a whole, favours compounds with a hit. Of some 83,000 tested, about 20% had one in any assay.
Returns: string. Value is TRUE if measured growth is below -20%, and FALSE if it is greater than or equal to it.

compound	assigned_class
Oc1ccc(Cl)c(Nc2ncnc3c2cnn3CC(Cl)c2ccc(Br)cc2)c1 (stereo not drawn)	FALSE
N#Cc1c(NC(=O)N2CCOCC2)n(-c2ccc(OC(F)(F)F)cc2)c2cc(F)ccc12	FALSE
NS(=O)(=O)c1ccc(N2N=C(c3ccc(NC(=O)Nc4ccccc4)cc3)CC2c2ccc(Br)cc2)cc1 (stereo not drawn)	TRUE

stdin: Confirm or reject: growth of "Cn1cc(-c2cc(N)n3nc(-c4c[nH]c5ccc(Cl)cc45)cc3n2)c2cc(Br)cnc21" lies strictly below -20%
stdout: TRUE

stdin: What do you have for "O=C1Nc2cc(-c3ccc(NS(=O)(=O)c4ccc(F)c(Cl)c4)cc3)ccc2/C1=C/c1ccc[nH]1" ?
stdout: FALSE

stdin: What do you have for "COc1cc2cc(C(=O)N3C[C@@H](CCl)c4c3cc(OC(=O)N(CCC(=O)N3CCN(C)CC3)C3CCCCC3)c3ccccc43)[nH]c2c(OC)c1OC" ?
stdout: TRUE

stdin: What do you have for Cc1ccc(C2CC(c3ccc(NC(=O)Nc4ccccc4)cc3)=NN2c2ccc(S(N)(=O)=O)cc2)cc1 (stereo not drawn) ?
stdout: TRUE

stdin: What do you have for "COC(=O)c1cccc(Oc2ccc(NC(=O)Nc3cc(C(F)(F)F)ccc3F)cc2)c1" ?
stdout: FALSE
